tested on: Raji-clone #10 (high CD5 expression); test: In vitro cytotoxicity, MTT assay, 72 h dose-response; assay type: cell-based; conditions: Homo sapiens, clone #10, CD5 expressing
pIC50: −log10 of the molar value.
Measurement name: pIC50

smiles_structure=COC1=CC[C@@H]([C@@H](C)/C=C(C)/C=C\C=C/C(=O)N[C@H](C(=O)N/C=C\C[C@H](C/C=C(\C)Cl)OC(N)=O)C(C)(C)C)OC1=O numeric_value=9.09
smiles_structure=COC1=CC[C@@H]([C@@H](C)/C=C(C)/C=C\C=C/C(=O)N[C@H](C(=O)N/C=C\C[C@H](C/C=C(\C)Cl)OC(=O)NCCCNC(=O)CCCCCN2C(=O)C=CC2=O)C(C)(C)C)OC1=O numeric_value=8.47
smiles_structure=COC1=CC[C@@H]([C@@H](C)/C=C(C)/C=C\C=C/C(=O)N[C@H](C(=O)N/C=C\C[C@H](C/C=C(\C)Cl)OC(=O)NCCCN)C(C)(C)C)OC1=O numeric_value=7.80
smiles_structure=COC1=CC[C@@H]([C@@H](C)/C=C(C)/C=C\C=C/C(=O)N[C@H](C(=O)N/C=C\C[C@H](C/C=C(\C)Cl)OC(=O)NCCCNC(=O)OCc2ccc(NC(=O)[C@H](CCCNC(N)=O)NC(=O)[C@@H](NC(=O)CCCCCN3C(=O)C=CC3=O)C(C)C)cc2)C(C)(C)C)OC1=O numeric_value=6.67

---

tested on: Raji cells; test: In vitro cytotoxicity, MTT assay, 72 h dose-response; assay type: cell-based, human; details: CD13−, CD20+, CD5−, CD4−, read-out: IC50
pIC50: −log10 of the molar value.
Measurement name: pIC50

smiles_structure=COC1=CC[C@@H]([C@@H](C)/C=C(C)/C=C\C=C/C(=O)N[C@H](C(=O)N/C=C\C[C@H](C/C=C(\C)Cl)OC(=O)NCCCN)C(C)(C)C)OC1=O measurement_name=pIC50 numeric_value=8.67

---

Catalogue of compounds with associated IC50
test system: U937 cells; assay: In vitro cytotoxicity, MTT assay, 72 h dose-response; format: cell-based, human; settings: CD13+, CD4+, read-out: IC50
Measurement name: IC50 (nM)

smiles_structure=COC1=CC[C@@H]([C@@H](C)/C=C(C)/C=C\C=C/C(=O)N[C@H](C(=O)N/C=C\C[C@H](C/C=C(\C)Cl)OC(N)=O)C(C)(C)C)OC1=O numeric_value=0.131
smiles_structure=COC1=CC[C@@H]([C@@H](C)/C=C(C)/C=C\C=C/C(=O)N[C@H](C(=O)N/C=C\C[C@H](C/C=C(\C)Cl)OC(=O)NCCCN)C(C)(C)C)OC1=O numeric_value=0.419
